The reported measurements were obtained from ChEMBL document CHEMBL3988442.

Recorded Percent Effect values for a group of molecules are listed next.
System: Trypanosoma cruzi
test.protocol: Trypanosoma cruzi phosphomannomutase and mannose-1-phosphate guanylyltransferase assay
Type: functional
Design: scale not given: direction of the effect not stated beside the values
condition: 10 µM
observed.property: Percent Effect (%)

>  <molecule>
COc1ccc2nnc(CCCC(=O)NCCC3=CCCCC3)n2n1

>  <target.system>
Trypanosoma cruzi

>  <observed.property>
Percent Effect

>  <number>
4.71

$$$$
>  <molecule>
CC(=O)Nc1nc(C(=O)NC(C)c2ccc3c(c2)OCCO3)cs1 (stereo not given)

>  <target.system>
Trypanosoma cruzi

>  <observed.property>
Percent Effect

>  <number>
5

$$$$
>  <molecule>
O=C(c1ccc(Cl)c(Cl)c1)N1CCCC(n2cncn2)C1 (stereo not given)

>  <target.system>
Trypanosoma cruzi

>  <observed.property>
Percent Effect

>  <number>
-2.14

$$$$
>  <molecule>
CCN1CCCC(CNC(=O)C2(c3cccc(Cl)c3)CC2)C1 (stereo not given)

>  <target.system>
Trypanosoma cruzi

>  <observed.property>
Percent Effect

>  <number>
-5.85

$$$$
>  <molecule>
c1ccc(-c2nnn3c2COC(CNCC2CCOCC2)C3)cc1 (stereo not given)

>  <target.system>
Trypanosoma cruzi

>  <observed.property>
Percent Effect

>  <number>
-0.984

$$$$

====

System: Trypanosoma cruzi
test.protocol: Trypanosoma cruzi phosphomannomutase and mannose-1-phosphate guanylyltransferase assay
Assay type: functional
Design: scale not given: direction of the effect not stated beside the values
condition: 10 µM
Catalogue of compounds with associated Percent Effect

>  <compound>
COCc1cc(NCc2cc(F)ccc2F)n2nccc2n1

>  <value.units>
%

>  <Percent Effect>
-5.68

$$$$
>  <compound>
CNc1cncc(C2CCCN2Cc2ccccc2OCC(=O)O)n1 (configuration not stated)

>  <value.units>
%

>  <Percent Effect>
-3.75

$$$$
>  <compound>
COc1cccc(C2CC(=O)Nc3nc(N4CCOCC4)sc32)c1OC (configuration not stated)

>  <value.units>
%

>  <Percent Effect>
-0.487

$$$$
>  <compound>
Cc1ccc(C(C)NC(=O)Cc2c(C)nc3c(c2C)c(=O)[nH]n3C)o1 (configuration not stated)

>  <value.units>
%

>  <Percent Effect>
1.08

$$$$
>  <compound>
COc1cc(CCC(=O)NC2CC2)ccc1OCC(F)(F)F

>  <value.units>
%

>  <Percent Effect>
-10.4

$$$$
>  <compound>
COc1c(CNCc2cnn(C)c2)c(C(C)C)nn1C

>  <value.units>
%

>  <Percent Effect>
3.01

$$$$
>  <compound>
COc1c(CNCc2cccc(Cn3ccnc3)c2)c(C)nn1C

>  <value.units>
%

>  <Percent Effect>
5.38

$$$$
>  <compound>
O=C(NCCNc1ncccn1)N1CCN(Cc2cccnc2)CC1

>  <value.units>
%

>  <Percent Effect>
10.5

$$$$
>  <compound>
CCOc1nnc(CNC2CCCN(c3ccc(C)nn3)C2)s1 (configuration not stated)

>  <value.units>
%

>  <Percent Effect>
6.89

$$$$
>  <compound>
Cc1ncc2c(n1)CN(CC(=O)Nc1nncs1)CC2

>  <value.units>
%

>  <Percent Effect>
3.27

$$$$
>  <compound>
CCN1CCN(C2CCN(Cc3noc(C)n3)CC2)C1=O

>  <value.units>
%

>  <Percent Effect>
1.98

$$$$
>  <compound>
Cc1ccc(-c2ncc(C(=O)NCCNc3ncccn3)s2)c(C)c1

>  <value.units>
%

>  <Percent Effect>
7.83

$$$$
>  <compound>
Cc1cccc(CCC(=O)N2CCCC(c3cc(C(N)=O)[nH]n3)C2)c1 (configuration not stated)

>  <value.units>
%

>  <Percent Effect>
6.13

$$$$
>  <compound>
O=C(N1CCOCC1)[C@@]12CCO[C@@H]1CCN(Cc1ccccc1F)C2

>  <value.units>
%

>  <Percent Effect>
-6.88

$$$$
>  <compound>
CC[C@@H](CO)NC(=O)c1coc(COc2ccc(OC)cc2)n1

>  <value.units>
%

>  <Percent Effect>
-2.05

$$$$
>  <compound>
COc1cccc(COCC(=O)N2CCCC(c3cc(C)[nH]n3)C2)c1 (configuration not stated)

>  <value.units>
%

>  <Percent Effect>
-2.92

$$$$
>  <compound>
COCCNC(=O)NCc1ccc(OC(C)C)c(F)c1

>  <value.units>
%

>  <Percent Effect>
8.5

$$$$
>  <compound>
COCC1c2nnn(CC3CC3)c2CCN1C(=O)c1cccc(F)c1 (configuration not stated)

>  <value.units>
%

>  <Percent Effect>
-4.59

$$$$
>  <compound>
Cc1cnn(CCCNC(=O)N2CCCCC(N3CCCC3)C2)c1 (configuration not stated)

>  <value.units>
%

>  <Percent Effect>
3.19

$$$$
>  <compound>
COc1ccc(NC(C)C(=O)N2CCN(c3ncccn3)CC2)cn1 (configuration not stated)

>  <value.units>
%

>  <Percent Effect>
3.13

$$$$
>  <compound>
CC(NC(=O)COc1nc(C(C)(C)C)no1)c1ccco1 (configuration not stated)

>  <value.units>
%

>  <Percent Effect>
4.25

$$$$
>  <compound>
O=C(NCC1CCOC1)c1cc(-c2cccc(Cl)c2)on1 (configuration not stated)

>  <value.units>
%

>  <Percent Effect>
0

$$$$

====

Let's look at some compounds and their measured Percent Effect.
target.system: Chromo domain-containing protein 1 (Saccharomyces cerevisiae (strain ATCC 204508 / S288c) (Baker's yeast)) (UniProt P32657)
Sequence (P32657 whole entry, the tested form may be a part): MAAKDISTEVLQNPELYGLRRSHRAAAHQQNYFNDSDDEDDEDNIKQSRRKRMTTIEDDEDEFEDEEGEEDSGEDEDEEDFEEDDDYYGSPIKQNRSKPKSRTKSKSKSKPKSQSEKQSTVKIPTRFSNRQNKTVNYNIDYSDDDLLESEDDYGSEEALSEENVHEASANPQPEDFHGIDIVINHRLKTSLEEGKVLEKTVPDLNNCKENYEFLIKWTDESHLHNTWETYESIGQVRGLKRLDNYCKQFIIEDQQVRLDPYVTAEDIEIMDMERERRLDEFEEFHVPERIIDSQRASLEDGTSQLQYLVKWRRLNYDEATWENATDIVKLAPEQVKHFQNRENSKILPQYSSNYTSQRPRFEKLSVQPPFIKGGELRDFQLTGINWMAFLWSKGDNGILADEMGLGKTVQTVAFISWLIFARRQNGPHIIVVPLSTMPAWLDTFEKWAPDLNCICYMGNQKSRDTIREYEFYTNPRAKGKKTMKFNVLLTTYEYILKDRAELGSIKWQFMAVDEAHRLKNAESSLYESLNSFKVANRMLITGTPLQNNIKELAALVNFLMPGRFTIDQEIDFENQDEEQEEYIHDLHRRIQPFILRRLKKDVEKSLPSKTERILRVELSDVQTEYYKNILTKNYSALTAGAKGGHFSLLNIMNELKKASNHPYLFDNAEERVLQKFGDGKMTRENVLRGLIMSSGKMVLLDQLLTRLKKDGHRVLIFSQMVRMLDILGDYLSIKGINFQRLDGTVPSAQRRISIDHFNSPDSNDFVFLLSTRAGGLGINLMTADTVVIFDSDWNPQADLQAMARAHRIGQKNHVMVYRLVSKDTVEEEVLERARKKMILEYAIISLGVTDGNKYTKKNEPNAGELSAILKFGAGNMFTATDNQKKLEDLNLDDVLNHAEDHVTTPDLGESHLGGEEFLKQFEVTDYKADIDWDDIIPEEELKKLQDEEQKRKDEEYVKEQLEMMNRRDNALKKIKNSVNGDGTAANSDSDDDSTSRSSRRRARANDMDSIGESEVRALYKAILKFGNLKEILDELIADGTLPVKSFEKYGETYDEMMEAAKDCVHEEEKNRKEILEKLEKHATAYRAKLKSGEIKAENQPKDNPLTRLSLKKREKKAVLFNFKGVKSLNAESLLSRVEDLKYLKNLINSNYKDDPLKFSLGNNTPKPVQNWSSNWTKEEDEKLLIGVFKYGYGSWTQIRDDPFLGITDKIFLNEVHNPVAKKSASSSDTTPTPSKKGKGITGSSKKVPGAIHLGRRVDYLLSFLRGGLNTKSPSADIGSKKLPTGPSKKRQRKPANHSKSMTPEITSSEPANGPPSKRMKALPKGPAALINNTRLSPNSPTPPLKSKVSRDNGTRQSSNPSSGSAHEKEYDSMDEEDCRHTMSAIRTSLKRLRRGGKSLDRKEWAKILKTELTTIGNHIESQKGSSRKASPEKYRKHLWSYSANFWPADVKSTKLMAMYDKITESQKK
test.protocol: ScCHD-1 Enzyme Inhibition Assay; note: in the data most compounds retested in dose-response had high values
Assay type: functional
Parameters: scale not given: direction of the effect not stated beside the values
condition: 30 µM

>  <compound>
COc1cccc(N2CCN(Cc3ncc[nH]3)CC2=O)c1

>  <Percent Effect, %>
-4.76

$$$$
>  <compound>
CN(CCNC(=O)Nc1ccncc1)C1CCCCC1

>  <Percent Effect, %>
-11

$$$$
>  <compound>
COCc1nc(C(=O)N2CCCCC2Cn2cccn2)cs1 (stereo unspecified)

>  <Percent Effect, %>
3.28

$$$$
>  <compound>
CCCc1cc(=O)[nH]c2nnc(SCC(=O)NCc3ccc(C)cc3)n12

>  <Percent Effect, %>
-7.5

$$$$
>  <compound>
COCCN1CCC2(CCCN(C(=O)c3cnoc3C)C2)C1=O (stereo unspecified)

>  <Percent Effect, %>
-5.73

$$$$
>  <compound>
Fc1cccc(N2CCCC3(C2)CN(c2ncccn2)CCO3)c1 (stereo unspecified)

>  <Percent Effect, %>
-4.87

$$$$
>  <compound>
CCc1nc2ccccc2c(=O)n1CC1(O)CCN(S(C)(=O)=O)CC1

>  <Percent Effect, %>
-11.7

$$$$
>  <compound>
CCS(=O)(=O)N(C)C(=O)c1cc(C)n(-c2cccc(OC)c2)c1C

>  <Percent Effect, %>
-8.76

$$$$
>  <compound>
COCC(=O)N1CC[C@@H]2O[C@@H](COCc3csc(C)n3)CC[C@@H]21

>  <Percent Effect, %>
-4.47

$$$$
>  <compound>
NC(=O)c1ccc2c(c1)nc1n2CCN(Cc2ccco2)C1

>  <Percent Effect, %>
34.5

$$$$
>  <compound>
Cc1nc(CN2CCCC2c2nc(C(C)C)no2)cs1 (stereo unspecified)

>  <Percent Effect, %>
-5.13

$$$$

====

target.system: Tyrosyl-tRNA synthetase, putative (Trypanosoma cruzi (strain CL Brener)) (UniProt Q4DSP6)
Sequence (whole entry): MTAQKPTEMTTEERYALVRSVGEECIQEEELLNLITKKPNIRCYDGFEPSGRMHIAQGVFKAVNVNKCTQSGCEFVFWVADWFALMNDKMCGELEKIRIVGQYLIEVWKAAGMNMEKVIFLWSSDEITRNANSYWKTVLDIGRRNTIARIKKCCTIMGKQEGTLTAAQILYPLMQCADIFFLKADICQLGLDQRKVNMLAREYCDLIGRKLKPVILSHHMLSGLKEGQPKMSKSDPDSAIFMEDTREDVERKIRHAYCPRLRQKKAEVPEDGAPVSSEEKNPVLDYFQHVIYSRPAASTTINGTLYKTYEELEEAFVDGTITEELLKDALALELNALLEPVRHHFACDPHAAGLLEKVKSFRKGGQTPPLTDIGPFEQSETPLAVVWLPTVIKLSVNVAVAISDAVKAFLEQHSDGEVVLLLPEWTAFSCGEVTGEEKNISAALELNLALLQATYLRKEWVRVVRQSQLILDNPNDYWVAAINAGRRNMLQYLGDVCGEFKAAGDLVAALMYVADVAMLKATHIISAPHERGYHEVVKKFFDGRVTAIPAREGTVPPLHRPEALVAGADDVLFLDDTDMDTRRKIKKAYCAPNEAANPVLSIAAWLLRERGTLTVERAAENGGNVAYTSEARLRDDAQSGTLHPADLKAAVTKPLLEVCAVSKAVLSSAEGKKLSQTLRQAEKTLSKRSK
test.protocol: Trypanosoma cruzi tyrosyl tRNA synthetase (TcYRS) _High Tyrosine SOP; note: in the data most compounds retested in dose-response had high values
Type: functional
Parameters: scale not given: direction of the effect not stated beside the values
condition: 30 µM
Some compounds, each annotated with its measured Percent Effect.
observed.property: Percent Effect

>  <compound>
CC(=O)c1cccc(S(=O)(=O)N2CSCC2C(=O)NCC(F)(F)F)c1 (stereo not drawn)

>  <result>
9.38%

$$$$
>  <compound>
COCC1c2c(cnn2C)CCN1Cc1ccoc1 (stereo not drawn)

>  <result>
0.99%

$$$$
>  <compound>
CCn1nnc2cc(C(=O)N3CCCC3Cn3cc(C)cn3)ccc21 (stereo not drawn)

>  <result>
0.493%

$$$$
>  <compound>
COCC1CN(C(=O)c2cccn2C)Cc2nccn2C1 (stereo not drawn)

>  <result>
2.13%

$$$$
>  <compound>
O=C(Cn1cc(I)cn1)Nc1cccnc1

>  <result>
3.19%

$$$$
>  <compound>
CCn1cnnc1CNC(=O)N1CCC(Cc2cccnc2)CC1

>  <result>
-1.91%

$$$$
>  <compound>
CCc1noc(C(C)N(C)CC(=O)Nc2ccc(C)cc2)n1 (stereo not drawn)

>  <result>
-1.07%

$$$$
>  <compound>
COc1ccc(CNCC(C)Oc2ccccn2)cc1Br (stereo not drawn)

>  <result>
11.6%

$$$$
>  <compound>
CCn1nc(CC(C)C)cc1C(=O)NCCn1cccc1

>  <result>
0%

$$$$
>  <compound>
CCCS(=O)(=O)NCC1CCOc2ccccc2C1 (stereo not drawn)

>  <result>
0%

$$$$
>  <compound>
CCc1c(C)nc2cc(C3CCN(Cc4ccccc4F)C3)nn2c1O (stereo not drawn)

>  <result>
4.3%

$$$$
>  <compound>
Cc1cc(C)n(CCC(=O)N2CCC(c3nc(C(C)C)no3)CC2)n1

>  <result>
6.45%

$$$$
>  <compound>
CC(C(=O)NCc1ccc(N2CCNC(=O)C2)cc1)n1cncn1 (stereo not drawn)

>  <result>
5.83%

$$$$
